- TEST PROTOCOL: Metabolic stability in mouse liver microsomes
- CONDITION DETAILS: liver microsomes
TEST READOUT: half-life at 1 µM

[
  {
    "MOLECULE": "Cc1cc(F)c(O)c(C)c1-n1c(N)c(C(N)=O)c2cc(C(F)(F)F)c(C)nc21 (atropisomer, axis not shown) [Example 59.1]",
    "RESULT": "3.08 h"
  },
  {
    "MOLECULE": "Cc1cc(F)c(O)c(C)c1-n1c(N)c(C(N)=O)c2cc(Br)c(C)nc21 (atropisomer, axis not shown) [Example 58.1]",
    "RESULT": "1.16 h"
  }
]
